B1: RIPK4 (parent)
chain: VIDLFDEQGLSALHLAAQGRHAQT

Variants of: B1
Assay: protein stability index of a GFP-peptide fusion (GPS, HEK-293T) (PSI 1-6); higher = more stable;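 note: lentivirally expressed fusions sorted by FACS into six bins by GFP to DsRed ratio, PSI derived from sequencing read proportions per bin multiplied by bin number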
Conditions: c terminus: a fixed tail appended
OBSERVATION_TYPE: protein stability index

[[record]]
mutant_name = "S11G"
result_number = 2.94

[[record]]
mutant_name = "H14T"
result_number = 2.95

[[record]]
mutant_name = "L13V"
result_number = 3.06

[[record]]
mutant_name = "G19S"
result_number = 2.99


Data credit: the supplement of paper PMC10567573
